The reported numbers originate from the supplement of paper PMC11246515.

Measured total protein half-life in vivo values are reported for all entries that follow.
# ASSAY: total protein half-life in vivo (active degradation + dilution); higher = more stable protein
# CONDITION_CONTEXT: wild type E. coli NCM3722; growth: N-lim chemostat; doubling time 6 h

- RESIDUE_SEQUENCE: "MAKLTLQEQLLKAGLVTSKKAAKVERTAKKSRVQAREARAAVEENKKAQLERDKQLSEQQKQAALAKEYKAQVKQLIEMNRITIANGDIGFNFTDGNLIKKIFVDKLTQAQLINGRLAIARLLVDNNSEGEYAIIPASVADKIAQRDASSIVLHSALSAEEQDEDDPYADFKVPDDLMW"
  total protein half-life in vivo, h: 1.95
- RESIDUE_SEQUENCE: "MIRSMTAYARREIKGEWGSATWEMRSVNQRYLETYFRLPEQFRSLEPVVRERIRSRLTRGKVECTLRYEPDVSAQGELILNEKLAKQLVTAANWVKMQSDEGEINPVDILRWPGVMAAQEQDLDAIAAEILAALDGTLDDFIVARETEGQALKALIEQRLEGVTAEVVKVRSHMPEILQWQRERLVAKLEDAQVQLENNRLEQELVLLAQRIDVAEELDRLEAHVKETYNILKKKEAVGRRLDFMMQEFNRESNTLASKSINAEVTNSAIELKVLIEQMREQIQNIE"
  total protein half-life in vivo, h: 4.21
- RESIDUE_SEQUENCE: "MQSWYLLYCKRGQLQRAQEHLERQAVNCLAPMITLEKIVRGKRTAVSEPLFPNYLFVEFDPEVIHTTTINATRGVSHFVRFGASPAIVPSAVIHQLSVYKPKDIVDPATPYPGDKVIITEGAFEGFQAIFTEPDGEARSMLLLNLINKEIKHSVKNTEFRKL [P0AFW0]"
  total protein half-life in vivo, h: 3.18
- RESIDUE_SEQUENCE: "MDIVFIEQLSVITTIGVYDWEQTIEQKLVFDIEMAWDNRKAAKSDDVADCLSYADIAETVVSHVEGARFALVERVAEEVAELLLARFNSPWVRIKLSKPGAVARAANVGVIIERGNNLKENN [P0AC16]"
  total protein half-life in vivo, h: 5.39

----------
Measured total protein half-life in vivo values are reported for all entries that follow.
# ASSAY: total protein half-life in vivo (active degradation + dilution); higher = more stable protein
# CONDITION_CONTEXT: wild type E. coli NCM3722; growth: N-lim chemostat; doubling time 6 h

- RESIDUE_SEQUENCE: "MSLFHLIAPSGYCIKQHAALRGIQRLTDAGHQVNNVEVIARRCERFAGTETERLEDLNSLARLTTPNTIVLAVRGGYGASRLLADIDWQALVARQQHDPLLICGHSDFTAIQCGLLAHGNVITFSGPMLVANFGADELNAFTEHHFWLALRNETFTIEWQGEGPTCRAEGTLWGGNLAMLISLIGTPWMPKIENGILVLEDINEHPFRVERMLLQLYHAGILPRQKAIILGSFSGSTPNDYDAGYNLESVYAFLRSRLSIPLITGLDFGHEQRTVTLPLGAHAILNNTREGTQLTISGHPVLKM"
  total protein half-life in vivo: "3.69 h"
- RESIDUE_SEQUENCE: "MMQHQVNVSARFNPETLERVLRVVRHRGFHVCSMNMAAASDAQNINIELTVASPRSVDLLFSQLNKLVDVAHVAICQSTTTSQQIRA [P0ADG1]"
  total protein half-life in vivo: "0.823 h"
- RESIDUE_SEQUENCE: "MLSNDILRSVRYILKANNNDLVRILALGNVEATAEQIAVWLRKEDEEGFQRCPDIVLSSFLNGLIYEKRGKDESAPALEPERRINNNIVLKKLRIAFSLKTDDILAILTEQQFRVSMPEITAMMRAPDHKNFRECGDQFLRYFLRGLAARQHVKKG"
  total protein half-life in vivo: "5.08 h"
- RESIDUE_SEQUENCE: "MIEWQDLHHSELSVSQLYALLQLRCAVFVVEQNCPYQDIDGDDLTGDNRHILGWKNDELVAYARILKSDDDLEPVVIGRVIVSEALRGEKVGQQLMSKTLETCTHHWPDKPVYLGAQAHLQNFYQSFGFIPVTEVYEEDGIPHIGMAREVIQA [P0AEH3]"
  total protein half-life in vivo: "2.68 h"
- RESIDUE_SEQUENCE: "MNKTQLIDVIAEKAELSKTQAKAALESTLAAITESLKEGDAVQLVGFGTFKVNHRAERTGRNPQTGKEIKIAAANVPAFVSGKALKDAVK [P0ACF0]"
  total protein half-life in vivo: "5.15 h"
- RESIDUE_SEQUENCE: "MKKTLLAAGAVLALSSSFTVNAAENDKPQYLSDWWHQSVNVVGSYHTRFGPQIRNDTYLEYEAFAKKDWFDFYGYADAPVFFGGNSDAKGIWNHGSPLFMEIEPRFSIDKLTNTDLSFGPFKEWYFANNYIYDMGRNKDGRQSTWYMGLGTDIDTGLPMSLSMNVYAKYQWQNYGAANENEWDGYRFKIKYFVPITDLWGGQLSYIGFTNFDWGSDLGDDSGNAINGIKTRTNNSIASSHILALNYDHWHYSVVARYWHDGGQWNDDAELNFGNGNFNVRSTGWGGYLVVGYNF [P0A927]"
  total protein half-life in vivo: "6.53 h"
- RESIDUE_SEQUENCE: "MADVHDKATRSKNMRAIATRDTAIEKRLASLLTGQGLAFRVQDASLPGRPDFVVDEYRCVIFTHGCFWHHHHCYLFKVPATRTEFWLEKIGKNVERDRRDISRLQELGWRVLIVWECALRGREKLTDEALTERLEEWICGEGASAQIDTQGIHLLA"
  total protein half-life in vivo: "3.98 h"
- RESIDUE_SEQUENCE: "MAILGLGTDIVEIARIEAVIARSGDRLARRVLSDNEWAIWKTHHQPVRFLAKRFAVKEAAAKAFGTGIRNGLAFNQFEVFNDELGKPRLRLWGEALKLAEKLGVANMHVTLADERHYACATVIIES"
  total protein half-life in vivo: "5.35 h"
- RESIDUE_SEQUENCE: "MKVLVTGATSGLGRNAVEFLCQKGISVRATGRNEAMGKLLEKMGAEFVPADLTELVSSQAKVMLAGIDTLWHCSSFTSPWGTQQAFDLANVRATRRLGEWAVAWGVRNFIHISSPSLYFDYHHHRDIKEDFRPHRFANEFARSKAASEEVINMLSQANPQTRFTILRPQSLFGPHDKVFIPRLAHMMHHYGSILLPHGGSALVDMTYYENAVHAMWLASQEACDKLPSGRVYNITNGEHRTLRSIVQKLIDELNIDCRIRSVPYPMLDMIARSMERLGRKSAKEPPLTHYGVSKLNFDFTLDITRAQEELGYQPVITLDEGIEKTAAWLRDHGKLPR"
  total protein half-life in vivo: "6.14 h"
- RESIDUE_SEQUENCE: "MKALSPIAVLISALLLQGCVAAAVVGTAAVGTKAATDPRSVGTQVDDGTLEVRVNSALSKDEQIKKEARINVTAYQGKVLLVGQSPNAELSARAKQIAMGVDGANEVYNEIRQGQPIGLGEASNDTWITTKVRSQLLTSDLVKSSNVKVTTENGEVFLMGLVTEREAKAAADIASRVSGVKRVTTAFTFIK"
  total protein half-life in vivo: "5.86 h"
- RESIDUE_SEQUENCE: "MSFFISDAVAATGAPAQGSPMSLILMLVVFGLIFYFMILRPQQKRTKEHKKLMDSIAKGDEVLTNGGLVGRVTKVAENGYIAIALNDTTEVVIKRDFVAAVLPKGTMKAL [P0ADZ7]"
  total protein half-life in vivo: "5.64 h"
- RESIDUE_SEQUENCE: "MSRPTIIINDLDAERIDILLEQPAYAGLPIADALNAELDRAQMCSPEEMPHDVVTMNSRVKFRNLSDGEVRVRTLVYPAKMTDSNTQLSVMAPVGAALLGLRVGDSIHWELPGGVATHLEVLELEYQPEAAGDYLL [P0AFW4]"
  total protein half-life in vivo: "1.43 h"
- RESIDUE_SEQUENCE: "MSRFIPIELHHASRLLNHGPTVLITSFDEQSQRRNIMAAAWSMPVEFEPPRVAIVVDKSTWTRELIEHNGKFGIVIPGVAATNWTWAVGSVSGRDEDKFNCYGIPVVRGPVFGLPLVEEKCLAWMECRLLPATSAQEEYDTLFGEVVSAAADARVFVEGRWQFDDDKLNTLHHLGAGTFVTSGKRVTAG"
  total protein half-life in vivo: "4.27 h"
- RESIDUE_SEQUENCE: "MAIDENKQKALAAALGQIEKQFGKGSIMRLGEDRSMDVETISTGSLSLDIALGAGGLPMGRIVEIYGPESSGKTTLTLQVIAAAQREGKTCAFIDAEHALDPIYARKLGVDIDNLLCSQPDTGEQALEICDALARSGAVDVIVVDSVAALTPKAEIEGEIGDSHMGLAARMMSQAMRKLAGNLKQSNTLLIFINQIRMKIGVMFGNPETTTGGNALKFYASVRLDIRRIGAVKEGENVVGSETRVKVVKNKIAAPFKQAEFQILYGEGINFYGELVDLGVKEKLIEKAGAWYSYKGEKIGQGKANATAWLKDNPETAKEIEKKVRELLLSNPNSTPDFSVDDSEGVAETNEDF [P0A7G6]"
  total protein half-life in vivo: "3.43 h"
